Quantity kind: melting point

Some solved entries appear below for comparison.
Cc1cn2cc(-c3cc4ccc(N5CCN(CC(C)C)CC5)cc4c(=O)o3)nc2c(C)n1    243 to 245 °C
Cc1cn2cc(-c3cc4ccc(N5C[C@@H](C)N(C)[C@@H](C)C5)cc4c(=O)o3)nc2c(C)n1    261 to 266 °C

Query: Given the molecule Cc1cn2cc(-c3cc4ccc(N5CCN(C6CCC6)[C@@H](C)C5)cc4c(=O)o3)nc2c(C)n1 , what is its reported melting point?
Result: 277 to 282 °C

Query: Given the molecule Cc1cn2cc(-c3cc4ccc(C5=CCN(C)CC5)cc4c(=O)o3)nc2c(C)n1 , what is its reported melting point?
Result: 240 to 242 °C

Query: Given the molecule C[C@H]1CN(c2ccc3cc(-c4cccc(O)c4)oc(=O)c3c2)CCN1 , what is its reported melting point?
Result: 256 to 258 °C

Query: Given the molecule CN1CCN(c2ccc3cc(-c4cn5ccsc5n4)oc(=O)c3c2)CC1 , what is its reported melting point?
Result: 236 to 238 °C

Query: Given the molecule O=c1oc(-c2ccsc2)cc2ccc(N3CCNCC3)cc12 , what is its reported melting point?
Result: 240 °C (dec.)

Query: Given the molecule CCc1nc(C)cn2cc(-c3cc4ccc(N5CCN(C)[C@@H](C)C5)cc4c(=O)o3)nc12 , what is its reported melting point?
Result: 233 to 238 °C

Query: Given the molecule Cc1cn2cc(-c3cc4ccc(N5CCN(C(C)C)CC5)cc4c(=O)o3)cc2c(C)n1 , what is its reported melting point?
Result: 213 to 215 °C

Query: Given the molecule Cc1cn2cc(-c3cc4ccc(N5CCN[C@H](C)C5)cc4c(=O)o3)nc2c(C)n1 , what is its reported melting point?
Result: 331 to 333 °C

Query: Given the molecule COc1cccc(-c2cc3ccc(N4C[C@@H](C)N[C@@H](C)C4)cc3c(=O)o2)c1 , what is its reported melting point?
Result: 195 to 197 °C

Query: Given the molecule CCCN1[C@H](C)CN(c2ccc3cc(-c4cn5cc(C)nc(C)c5n4)oc(=O)c3c2)C[C@@H]1C , what is its reported melting point?
Result: 259 to 263 °C

Query: Given the molecule C[C@@H]1CN(c2ccc3cc(-c4ccc5c(c4)OCCO5)oc(=O)c3c2)CCN1 , what is its reported melting point?
Result: 175 to 177 °C

----------
Quantity kind: melting point

Some solved entries appear below for comparison.
C[C@@H]1CN(c2ccc3cc(-c4ccccn4)oc(=O)c3c2)C[C@H](C)N1    168 to 170 °C
Cc1nc(Cl)cn2cc(-c3cc4ccc(N5CCN[C@H](C)C5)cc4c(=O)o3)nc12    251 to 258 °C
Cc1cn2cc(-c3cc4ccc(N5CCN(CCO)CC5)cc4c(=O)o3)cc2c(C)n1    240 to 242 °C
Cc1nc(Cl)cn2cc(-c3cc4ccc(N5CCN(C)[C@H](C)C5)cc4c(=O)o3)nc12    271 to 276 °C
Cc1nc(Cl)cn2cc(-c3cc4ccc(N5CCN(C)CC5)cc4c(=O)o3)nc12    291 to 296 °C
C[C@H]1CN(c2ccc3cc(-c4ccc5c(c4)OCO5)oc(=O)c3c2)CCN1    248 to 250 °C
CCN1CCC(c2ccc3cc(-c4cn5cc(C)nc(C)c5n4)oc(=O)c3c2)CC1    215 to 217 °C
Cc1nc2cc(-c3cc4ccc(N5CCNCC5)cc4c(=O)o3)ccc2s1    229 to 235 °C
COc1ccc(-c2cc3ccc(N4CCN[C@@H](C)C4)cc3c(=O)o2)c(F)c1    167 to 168 °C
Cc1cn2cc(-c3cc4ccc(C5CCN(C6COC6)CC5)cc4c(=O)o3)nc2c(C)n1    225 to 227 °C

Query: Given the molecule CCN1CCN(c2ccc3cc(-c4cn5cc(C)nc(C)c5n4)oc(=O)c3c2)C[C@H]1C , what is its reported melting point?
Result: 243 to 246 °C

Query: Given the molecule CCc1nc(C)cn2cc(-c3cc4ccc(N5CCN[C@@H](C)C5)cc4c(=O)o3)nc12 , what is its reported melting point?
Result: 206 to 211 °C

Query: Given the molecule C[C@H]1CN(c2ccc3cc(-c4ccc(O)c(O)c4)oc(=O)c3c2)CCN1 , what is its reported melting point?
Result: 220 to 222 °C

----------
Quantity kind: melting point

Some solved entries appear below for comparison.
Cc1cn2cc(-c3cc4ccc(N5CCN(C)CC5)cc4c(=O)o3)cc2c(C)n1    219 to 221 °C
Cc1nc(Cl)cn2cc(-c3cc4ccc(N5C[C@@H](C)N[C@@H](C)C5)cc4c(=O)o3)nc12    261 to 266 °C

Query: Given the compound Cc1cn2cc(-c3cc4ccc(N5CCN[C@H](C)C5)cc4c(=O)o3)nc2cn1 , what is its reported melting point?
Result: 219 to 225 °C

----------
melting point values for the compounds below.

Cc1cn2cc(-c3cc4ccc(C5CCN(C)CC5)cc4c(=O)o3)nc2c(C)n1    248 to 250 °C

Query: Given the compound Cc1cn2cc(-c3cc4ccc(C5=CCN(C6CC6)CC5)cc4c(=O)o3)nc2c(C)n1 , what is its reported melting point?
Result: 230 to 232 °C

Query: Given the compound O=c1oc(-c2ccc3c(c2)OCCO3)cc2ccc(N3CCNCC3)cc12 , what is its reported melting point?
Result: 253 to 255 °C

Query: Given the compound COc1cccc(-c2cc3ccc(N4CCCNCC4)cc3c(=O)o2)c1 , what is its reported melting point?
Result: 148 to 150 °C

Query: Given the compound C[C@@H]1CN(c2ccc3cc(-c4ccc5c(c4)OCCO5)oc(=O)c3c2)C[C@H](C)N1 , what is its reported melting point?
Result: 218 to 220 °C

----------
melting point values for the compounds below.

Some solved entries appear below for comparison.
Cc1cn2cc(-c3cc4ccc(N5C[C@@H](C)N(CCO)[C@@H](C)C5)cc4c(=O)o3)nc2cn1    241 to 245 °C
Cc1cn2cc(-c3cc4ccc(N5CCN(C6CCC6)[C@H](C)C5)cc4c(=O)o3)nc2c(C)n1    281 to 285 °C
CCc1nc(C)cn2cc(-c3cc4ccc(N5CCN(C)CC5)cc4c(=O)o3)nc12    229 to 234 °C

Could you now look at the following compound, please?
Query: Given the compound COc1ccccc1-c1cc2ccc(N3C[C@@H](C)N[C@@H](C)C3)cc2c(=O)o1 , what is its reported melting point?
Result: 154 to 157 °C

----------
melting point values for the compounds below.

Some solved entries appear below for comparison.
C[C@H]1CN(c2ccc3cc(-c4nc5ccccc5s4)oc(=O)c3c2)CCN1 [Cpd 36]    236 to 238 °C
C[C@H]1CN(c2ccc3cc(-c4ccc(OC(F)F)cc4)oc(=O)c3c2)CCN1 [Cpd 54]    121 to 123 °C
COc1ccc(-c2cc3ccc(N4CCN[C@@H](C)C4)cc3c(=O)o2)c(OC)c1 [Cpd 50]    231 °C (dec.)
CN1CCN(c2ccc3cc(-c4ccccn4)oc(=O)c3c2)CC1 [Cpd 4]    174 to 176 °C
CCOc1ccc(-c2cc3ccc(N4CCNCC4)cc3c(=O)o2)cc1 [Cpd 51]    245 °C (dec.)

Could you now look at the following compound, please?
Query: Given the compound O=c1oc(-c2cn3ccsc3n2)cc2ccc(N3CCNCC3)cc12 [Cpd 28] , what is its reported melting point?
Result: 224 to 226 °C

----------
Quantity kind: melting point

Some solved entries appear below for comparison.
CCN1CCN(c2ccc3cc(-c4cn5cc(Cl)nc(C)c5n4)oc(=O)c3c2)CC1    229 to 234 °C
O=c1oc(-c2nc3ccccc3s2)cc2ccc(N3CCCNCC3)cc12    277 to 279 °C
Cc1cn2cc(-c3cc4ccc(N5C[C@@H](C)N[C@@H](C)C5)cc4c(=O)o3)nc2c(C)n1    244 to 246 °C
C[C@H]1CN(c2ccc3cc(-c4cn5ccsc5n4)oc(=O)c3c2)CCN1    340 to 342 °C
O=c1oc(-c2ccccn2)cc2ccc(N3CCNCC3)cc12    179 to 181 °C

Query: Given the compound C[C@H]1CN(c2ccc3cc(-c4cn5cccc(Cl)c5n4)oc(=O)c3c2)CCN1 , what is its reported melting point?
Result: 314 to 316 °C

Query: Given the compound COc1ccc(-c2cc3ccc(N4CCN(C)CC4)cc3c(=O)o2)cc1 , what is its reported melting point?
Result: 166 to 168 °C

----------
melting point values for the molecules below.

Some solved entries appear below for comparison.
O=c1oc(-c2cn3cccc(Cl)c3n2)cc2ccc(N3CCNCC3)cc12    343 to 345 °C
CN1CCCN(c2ccc3cc(-c4nc5ccccc5s4)oc(=O)c3c2)CC1    270 to 272 °C

Query: Given the molecule COc1ccc(-c2cc3ccc(N4CCN[C@@H](C)C4)cc3c(=O)o2)cc1Cl , what is its reported melting point?
Result: 187 to 189 °C

Query: Given the molecule COc1ccc(-c2cc3ccc(N4CCNCC4)cc3c(=O)o2)cc1 , what is its reported melting point?
Result: 235 to 238 °C

Origin of the recorded values: patent US9399649B2
